Entries and their inhibition
SUBJECT OF TEST: Proto-oncogene tyrosine-protein kinase receptor Ret (Homo sapiens)
CONDITION DETAILS: at 1 µM
Reply with just the number (in %).

COc1cccc(-c2c[nH]c3c(N/N=C/c4ccncc4)ncnc23)c1 37.9
CC(=O)Nc1cccc(C#Cc2cncnc2Nc2ccc(OCc3cccc(F)c3)c(Cl)c2)c1 11
COC(=O)c1sc(-n2cnc3cc(OC)c(OC)cc32)cc1OCc1ccccc1C(F)(F)F 64.5
[O-][S+]1CCN(Cc2ccc(-c3ccc4ncnc(Nc5ccc(OCc6cccc(F)c6)c(Cl)c5)c4c3)o2)CC1 8.36
Nc1nc(-c2ccc(F)cc2)c(-c2ccc3ncccc3n2)s1 14.8

Notebook: pull reported inhibition for Proto-oncogene tyrosine-protein kinase receptor Ret (Homo sapiens), entry COc1cc(/C=N/Nc2ncnc3[nH]ncc23)ccc1O
83.4

Notebook: pull reported inhibition for Proto-oncogene tyrosine-protein kinase receptor Ret (Homo sapiens), entry CN(C)CCOc1ccc(-c2nc(-c3ccncc3)c(-c3ccc4c(c3)CC/C4=N\O)[nH]2)cc1
7.06

Notebook: pull reported inhibition for Proto-oncogene tyrosine-protein kinase receptor Ret (Homo sapiens), entry CC(=O)NCc1cccc(C#Cc2cncnc2Nc2ccc(OCc3cccc(F)c3)c(Cl)c2)c1
20.2

Notebook: pull reported inhibition for Proto-oncogene tyrosine-protein kinase receptor Ret (Homo sapiens), entry N#Cc1c(NC(=O)CN2CCOCC2)sc2c1CCCC2
7.18

Notebook: pull reported inhibition for Proto-oncogene tyrosine-protein kinase receptor Ret (Homo sapiens), entry CN1CCC(n2cnc(-c3ccc(F)cc3)c2-c2ccnc(Nc3ccccc3)n2)CC1
18.3

Notebook: pull reported inhibition for Proto-oncogene tyrosine-protein kinase receptor Ret (Homo sapiens), entry COc1cc(N2CCN(C(C)C)CC2)ccc1Nc1nc(Nc2ccc(F)cc2C(N)=O)c2cc[nH]c2n1
9.44

Notebook: pull reported inhibition for Proto-oncogene tyrosine-protein kinase receptor Ret (Homo sapiens), entry CS(=O)(=O)CCNCc1coc(-c2ccc3ncnc(Nc4ccc(OCc5ccccc5)cc4)c3c2)c1
8.54

Notebook: pull reported inhibition for Proto-oncogene tyrosine-protein kinase receptor Ret (Homo sapiens), entry COC(=O)Nc1nc2ccc(S(=O)(=O)c3ccc(NC(=O)Nc4cc(C(F)(F)F)ccc4F)cc3)cc2[nH]1
5.22

* * *

Entries and their inhibition
SUBJECT OF TEST: Ribosomal protein S6 kinase alpha-4 (Homo sapiens)
CONDITION DETAILS: at 0.1 µM
Reply with just the number (in %).

COc1ccc2[nH]c3c4[nH]c5ccc(OC)cc5c4c4c(c3c2c1)C(=O)NC4=O 11.8
Nc1nc(-c2cccc(Cl)c2)c(-c2ccc3ncccc3n2)s1 2.91
CC(=O)NCc1cccc(C#Cc2cncnc2Nc2ccc(OCc3cccc(F)c3)c(Cl)c2)c1 0.45
O=S(=O)(CCNCc1ccc(-c2ccc3ncnc(Nc4ccc(OCc5cccc(F)c5)c(Cl)c4)c3c2)o1)c1ccccc1 3.43
CC(=O)Nc1cccc(C#Cc2cncnc2Nc2ccc(OCc3cccc(F)c3)c(Cl)c2)c1 1.16
COc1cc(N2CCN(C(C)C)CC2)ccc1Nc1nc(Nc2ccc(F)cc2C(N)=O)c2cc[nH]c2n1 1.8
CCOc1ccc2c(-c3ccnc(Nc4cccc(C(F)(F)F)c4)n3)cnn2n1 1.4
COc1cc2c(cc1Nc1nc(Nc3ccsc3C(N)=O)c3cc[nH]c3n1)N(C(=O)CN(C)C)CCC2(C)C 5.18

Moving on to the next molecule.
Notebook: pull reported inhibition for Ribosomal protein S6 kinase alpha-4 (Homo sapiens), entry COc1ccc(-c2cc3c(N)ncnc3o2)cc1
-0.05

* * *

SUBJECT OF TEST: Tyrosine-protein kinase Srms (Homo sapiens) (UniProt Q9H3Y6)
Sequence (Q9H3Y6 whole entry): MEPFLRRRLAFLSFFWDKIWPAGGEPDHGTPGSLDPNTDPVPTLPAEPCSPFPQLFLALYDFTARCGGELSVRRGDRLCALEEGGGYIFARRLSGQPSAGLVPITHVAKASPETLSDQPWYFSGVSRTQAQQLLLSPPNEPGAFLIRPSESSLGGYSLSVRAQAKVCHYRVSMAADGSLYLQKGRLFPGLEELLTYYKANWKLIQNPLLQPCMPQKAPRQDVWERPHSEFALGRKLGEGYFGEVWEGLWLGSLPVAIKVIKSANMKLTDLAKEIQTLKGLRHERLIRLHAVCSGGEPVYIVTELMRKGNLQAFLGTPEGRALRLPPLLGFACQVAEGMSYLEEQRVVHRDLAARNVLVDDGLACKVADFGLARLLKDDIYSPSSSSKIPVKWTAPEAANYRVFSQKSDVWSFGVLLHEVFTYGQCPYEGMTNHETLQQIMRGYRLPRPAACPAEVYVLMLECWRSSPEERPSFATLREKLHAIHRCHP
CONDITION DETAILS: at 1 µM
Description: GSK_PKIS: SRMS mean inhibition at 1 uM [Nanosyn]
Entries and their inhibition
Reply with just the number (in %).

Observe how each entry below is paired with its result.
CCn1cc(-c2ccnc3[nH]ccc23)c(-c2cccc(NC(=O)Nc3ccc(OCc4ccccc4)cc3)c2)n1 -1.61
CCN1CCC(CC(=O)Nc2n[nH]c3nnc(-c4cccc(F)c4F)cc23)CC1 0.68
O=C(Nc1n[nH]c2cc(-c3ccc(F)cc3)ccc12)C1CC1 -0.73
Fc1ccc(-c2nn3ncccc3c2-c2ccnc(Nc3ccc4c(c3)OCCO4)n2)cc1 9.83
CCNC(=O)O[C@H]1CN[C@H](C#Cc2cc3ncnc(Nc4ccc(OCc5cccc(F)c5)c(Cl)c4)c3s2)C1 -2.79
NS(=O)(=O)c1ccc(N/N=C2\C(=O)Nc3ccc4ncccc4c32)cc1 3.96
Fc1ccc(-c2nn3ccccc3c2-c2ccncc2)cc1 0.28
COc1cc(Nc2nccc(Nc3ccc4c(C)n[nH]c4c3)n2)cc(OC)c1OC 12.6

Entry under review: COc1ccc(-c2oc3ncnc(N)c3c2-c2ccc(NC(=O)Nc3cc(C(F)(F)F)ccc3F)cc2)cc1 . Reported inhibition?
8.83

Entry under review: CC(C)(CO)CNC(=O)c1ccc2c(c1)/C(=N/Nc1ccc(S(N)(=O)=O)cc1)C(=O)N2 . Reported inhibition?
0.39

* * *

SUBJECT OF TEST: Dual specificity mitogen-activated protein kinase kinase 1 (Homo sapiens) (UniProt Q02750)
Sequence (Q02750 whole entry): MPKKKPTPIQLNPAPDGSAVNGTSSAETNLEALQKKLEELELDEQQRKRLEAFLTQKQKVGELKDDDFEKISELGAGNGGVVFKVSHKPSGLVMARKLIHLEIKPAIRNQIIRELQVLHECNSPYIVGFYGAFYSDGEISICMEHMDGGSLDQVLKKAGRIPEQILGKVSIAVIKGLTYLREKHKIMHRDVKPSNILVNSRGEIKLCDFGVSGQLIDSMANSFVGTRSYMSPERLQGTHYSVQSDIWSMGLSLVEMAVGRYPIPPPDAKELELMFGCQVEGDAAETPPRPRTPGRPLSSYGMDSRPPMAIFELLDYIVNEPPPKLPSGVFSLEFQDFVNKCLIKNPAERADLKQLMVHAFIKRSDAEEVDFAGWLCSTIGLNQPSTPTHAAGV
CONDITION DETAILS: at 0.1 µM
Entries and their inhibition
Reply with just the number (in %).

Observe how each entry below is paired with its result.
CCN1CCC(CC(=O)Nc2n[nH]c3nnc(-c4cccc(F)c4F)cc23)CC1 2.23
Fc1cccc(COc2ccc(Nc3ncnc4sc(-c5ccco5)cc34)cc2Cl)c1 5.47
CCCN(CCS(C)(=O)=O)Cc1ccc(-c2ccc3ncnc(Nc4ccc(OCc5cccc(F)c5)c(Cl)c4)c3c2)o1 1.53
COc1cc2c(cc1Nc1nc(Nc3ccsc3C(N)=O)c3cc[nH]c3n1)N(C(=O)CN(C)C)CCC2(C)C 6.86
O=S(=O)(CCNCc1ccc(-c2ccc3ncnc(Nc4ccc(OCc5cccc(F)c5)c(Cl)c4)c3c2)o1)c1ccccc1 6.48
FC(F)(F)c1cccc(-c2nn3ncccc3c2-c2ccnc(Nc3ccc4c(c3)OCCO4)n2)c1 2.31

Entry under review: [O-][S+]1CCN(Cc2ccc(-c3ccc4ncnc(Nc5ccc(OCc6cccc(F)c6)c(Cl)c5)c4c3)o2)CC1 . Reported inhibition?
5.35

Entry under review: Nc1ncc(-c2cccc(S(N)(=O)=O)c2)c2scc(-c3ccc(F)c(Cl)c3)c12 . Reported inhibition?
3.89

* * *

SUBJECT OF TEST: Protein kinase C theta type (Homo sapiens) (UniProt Q04759)
Sequence (Q04759 whole entry, looked up): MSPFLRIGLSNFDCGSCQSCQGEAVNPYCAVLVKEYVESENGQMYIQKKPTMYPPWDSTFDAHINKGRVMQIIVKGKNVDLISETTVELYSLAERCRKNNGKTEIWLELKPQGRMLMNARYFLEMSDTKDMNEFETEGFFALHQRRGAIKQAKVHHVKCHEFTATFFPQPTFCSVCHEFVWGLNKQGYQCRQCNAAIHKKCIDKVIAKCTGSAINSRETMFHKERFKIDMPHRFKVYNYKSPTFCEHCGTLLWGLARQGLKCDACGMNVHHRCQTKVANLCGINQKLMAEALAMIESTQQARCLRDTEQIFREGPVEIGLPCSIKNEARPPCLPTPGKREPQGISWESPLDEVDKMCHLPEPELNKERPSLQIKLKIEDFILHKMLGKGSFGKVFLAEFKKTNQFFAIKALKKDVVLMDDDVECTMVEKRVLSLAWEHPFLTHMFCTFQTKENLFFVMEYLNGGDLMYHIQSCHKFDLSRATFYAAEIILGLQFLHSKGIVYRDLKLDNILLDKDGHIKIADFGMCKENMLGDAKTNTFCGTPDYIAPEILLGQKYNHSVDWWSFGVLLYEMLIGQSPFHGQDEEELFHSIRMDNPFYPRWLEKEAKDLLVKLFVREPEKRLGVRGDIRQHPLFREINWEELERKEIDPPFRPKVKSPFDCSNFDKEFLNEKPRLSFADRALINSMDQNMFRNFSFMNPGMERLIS
CONDITION DETAILS: at 1 µM
Entries and their inhibition
Reply with just the number (in %).

Observe how each entry below is paired with its result.
CCN(CC)S(=O)(=O)c1ccc(OC)c(Nc2ncc(-c3ccccc3)o2)c1 1.38
N#Cc1c(NC(=O)CN2CCOCC2)sc2c1CCCC2 3.7
CCCN1CCC(c2ccc(Nc3nc(Nc4cc(F)ccc4C(N)=O)c4cc[nH]c4n3)c(OC)c2)CC1 8.87
N#Cc1c(NC(=O)c2ccc(F)cc2)sc2c1CCCC2 -0.01
CN1CCC(n2cnc(-c3ccc(F)cc3)c2-c2ccnc(Nc3ccccc3)n2)CC1 4.03
NS(=O)(=O)c1ccc(Nc2ncc(-c3ccccc3)o2)cc1 3.14
CCn1c(-c2nonc2N)nc2c(C#CC(C)(C)O)ncc(OC3CCNCC3)c21 81.5
NS(=O)(=O)c1ccc(N/N=C2\C(=O)Nc3ccc4ncccc4c32)cc1 11.8
c1cc(-c2cnn3nc(N4CCOCC4)ccc23)nc(NC2CC2)n1 1.61
COc1ccc(-c2oc3ncnc(N)c3c2-c2ccc(NC(=O)Nc3cc(C(F)(F)F)ccc3F)cc2)cc1 5.06

Moving on to the next compound.
Entry under review: CS(=O)(=O)CCNCc1ccc(-c2ccc3ncnc(Nc4ccc(OCc5ccccc5)c(C(F)(F)F)c4)c3c2)o1 . Reported inhibition?
1.95

* * *

SUBJECT OF TEST: Dual specificity protein kinase CLK2 (Homo sapiens)
CONDITION DETAILS: at 0.1 µM
Description: GSK_PKIS: CLK2 mean inhibition at 0.1 uM [Nanosyn]
Entries and their inhibition
Reply with just the number (in %).

Observe how each entry below is paired with its result.
COc1cc(/C=N/Nc2ncnc3[nH]ncc23)ccc1O 2.37
CNC(=O)c1cccc(C#Cc2cncnc2Nc2ccc(OCc3cccc(F)c3)c(Cl)c2)c1 0.38
Fc1ccc(-c2nn3ccccc3c2-c2ccncc2)cc1 0.24
COc1cc2c(cc1Nc1nc(Nc3ccsc3C(N)=O)c3cc[nH]c3n1)N(C(=O)CN(C)C)CCC2(C)C 29

Moving on to the next compound.
Entry under review: CNC(=O)c1cc(-c2ccc(F)cc2)cc(-c2ccc(S(=O)(=O)N3CCCC3)cc2)c1N . Reported inhibition?
1.77

* * *

SUBJECT OF TEST: Mast/stem cell growth factor receptor Kit (Homo sapiens) (UniProt P10721)
Sequence (P10721 whole entry): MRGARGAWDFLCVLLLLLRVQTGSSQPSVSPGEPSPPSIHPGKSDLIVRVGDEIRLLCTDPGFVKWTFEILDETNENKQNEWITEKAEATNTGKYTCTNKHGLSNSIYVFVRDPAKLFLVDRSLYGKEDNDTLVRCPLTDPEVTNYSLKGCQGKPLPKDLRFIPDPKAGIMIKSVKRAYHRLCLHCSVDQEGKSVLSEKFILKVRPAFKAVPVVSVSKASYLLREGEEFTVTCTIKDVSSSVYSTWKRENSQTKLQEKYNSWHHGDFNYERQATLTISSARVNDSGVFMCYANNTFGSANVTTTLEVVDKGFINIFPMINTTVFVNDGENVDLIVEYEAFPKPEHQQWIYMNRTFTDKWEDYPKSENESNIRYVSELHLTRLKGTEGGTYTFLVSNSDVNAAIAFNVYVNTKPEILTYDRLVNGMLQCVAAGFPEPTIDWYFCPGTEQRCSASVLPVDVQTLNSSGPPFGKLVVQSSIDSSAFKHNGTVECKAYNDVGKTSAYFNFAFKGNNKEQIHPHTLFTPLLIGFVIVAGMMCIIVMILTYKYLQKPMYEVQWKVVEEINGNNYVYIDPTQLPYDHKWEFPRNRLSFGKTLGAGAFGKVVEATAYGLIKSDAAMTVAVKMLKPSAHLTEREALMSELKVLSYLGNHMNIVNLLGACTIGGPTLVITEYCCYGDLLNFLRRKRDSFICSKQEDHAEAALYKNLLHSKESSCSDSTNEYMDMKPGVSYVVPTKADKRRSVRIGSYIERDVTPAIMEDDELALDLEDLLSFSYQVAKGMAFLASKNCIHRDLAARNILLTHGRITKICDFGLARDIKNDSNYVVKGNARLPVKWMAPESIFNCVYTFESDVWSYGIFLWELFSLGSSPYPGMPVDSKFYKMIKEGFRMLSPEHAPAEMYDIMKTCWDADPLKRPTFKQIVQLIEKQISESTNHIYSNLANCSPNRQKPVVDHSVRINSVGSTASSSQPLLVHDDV
CONDITION DETAILS: at 1 µM
Entries and their inhibition
Reply with just the number (in %).

Observe how each entry below is paired with its result.
CCNC(=O)O[C@H]1CN[C@H](C#Cc2cc3ncnc(Nc4ccc(OCc5cccc(F)c5)c(Cl)c4)c3s2)C1 2.58
FC(F)(F)c1cccc(-c2nn3ncccc3c2-c2ccnc(Nc3ccc4c(c3)OCCO4)n2)c1 24.6
N#Cc1c(NC(=O)CN2CCOCC2)sc2c1CCCC2 7.99
[O-][S+]1CCN(Cc2ccc(-c3ccc4ncnc(Nc5ccc(OCc6cccc(F)c6)c(Cl)c5)c4c3)o2)CC1 10.1

Entry under review: COc1cc2c(cc1Nc1nc(Nc3ccsc3C(N)=O)c3cc[nH]c3n1)N(C(=O)CN(C)C)CCC2(C)C . Reported inhibition?
67.6

Entry under review: CCCN(CCS(C)(=O)=O)Cc1ccc(-c2ccc3ncnc(Nc4ccc(OCc5cccc(F)c5)c(Cl)c4)c3c2)o1 . Reported inhibition?
4.79

Entry under review: COc1cccc(-n2ncc3c(N/N=C/c4ccc(F)cc4)ncnc32)c1 . Reported inhibition?
17.1

Entry under review: CCc1nn2ncccc2c1-c1ccnc(NC2CC2)n1 . Reported inhibition?
7.72

Entry under review: COc1ccc(-c2cc3c(N)ncnc3o2)cc1 . Reported inhibition?
8.52

Entry under review: CNC(=O)c1cccc(C#Cc2cncnc2Nc2ccc(OCc3cccc(F)c3)c(Cl)c2)c1 . Reported inhibition?
8.09

Entry under review: COc1cccc(-c2c[nH]c3c(N/N=C/c4ccncc4)ncnc23)c1 . Reported inhibition?
88

Entry under review: COc1ccc2[nH]c3c4[nH]c5ccc(OC)cc5c4c4c(c3c2c1)C(=O)NC4=O . Reported inhibition?
79.9

Entry under review: Fc1ccc(-c2cc(-c3c[nH]nc3-c3ccccn3)ccn2)cc1 . Reported inhibition?
6.81

Entry under review: CC(=O)Nc1cccc(C#Cc2cncnc2Nc2ccc(OCc3cccc(F)c3)c(Cl)c2)c1 . Reported inhibition?
2.18

These entries and their values trace back to ChEMBL document CHEMBL1961873.
